Record form. Attribute: pIC50. Fill in for each entry.
pIC50: −log10 of the molar value.

Record Cn1nccc1[C@]1(C)C[C@@H](C(=O)Nc2cnc(-n3nccn3)c(Cl)c2)c2cnc3cc(F)nn3c21 (single isomer, unassigned) [Example 65] : what is its pIC50 with full-length MALT1 protein His-MALT1(1-824) (Homo sapiens, UniProt Q9UDY8)?
≤ 6.00

Record Cn1ccc([C@]2(C)C[C@@H](C(=O)Nc3cnc(-n4nccn4)c(Cl)c3)c3cnc4cc(Cl)nn4c32)n1 (single isomer, unassigned) [Example 77] : what is its pIC50 with full-length MALT1 protein His-MALT1(1-824) (Homo sapiens, UniProt Q9UDY8)?
≤ 6.00

Record Cn1ccc([C@@]2(C)C[C@H](C(=O)Nc3cnc(-n4nccn4)c(C(F)(F)F)c3)c3cnc4cc(F)nn4c32)n1 (single isomer, unassigned) [Example 144] : what is its pIC50 with full-length MALT1 protein His-MALT1(1-824) (Homo sapiens, UniProt Q9UDY8)?
> 8.00

Record Cn1cc([C@@]2(C)C[C@H](C(=O)Nc3cnc(-n4nccn4)c(Cl)c3)c3cnc4cc(Cl)nn4c32)cn1 (single isomer, unassigned) [Example 8] : what is its pIC50 with full-length MALT1 protein His-MALT1(1-824) (Homo sapiens, UniProt Q9UDY8)?
> 8.00

Record CC(F)(F)n1cc([C@]2(C)C[C@@H](C(=O)Nc3cnc(-n4nccn4)c(Cl)c3)c3cnc4cc(F)nn4c32)cn1 (single isomer, unassigned) [Example 121] : what is its pIC50 with full-length MALT1 protein His-MALT1(1-824) (Homo sapiens, UniProt Q9UDY8)?
≤ 6.00
